tgt: zif268 DBD R18Q/E21N (QN) (UniProt P08046 331-420, R349Q;E352N)
assay_name: competition EMSA (QuMFRA); 30 mM Tris-HCl pH 8.0, 50 mM NaCl, 0.1 mg/ml BSA, 3 mM DTT, 20 uM ZnSO4, 5 ug/ml poly(dI-dC), 1 h on ice; 10% polyacrylamide gel
Some binders, each annotated with its measured binding signal.

binder: Zif_2 (CA) (dsDNA) DNA 1: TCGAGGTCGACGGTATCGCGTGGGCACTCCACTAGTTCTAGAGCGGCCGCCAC DNA 2: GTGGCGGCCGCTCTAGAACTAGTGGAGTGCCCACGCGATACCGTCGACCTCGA
binding signal: 0.49 Ka relative to CG
//
binder: Zif_6 (AC) (dsDNA) DNA 1: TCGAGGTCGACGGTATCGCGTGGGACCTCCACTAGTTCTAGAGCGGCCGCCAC DNA 2: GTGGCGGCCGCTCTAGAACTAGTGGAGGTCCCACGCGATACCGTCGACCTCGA
binding signal: 2.78 Ka relative to CG
//
binder: Zif_3 (CC) (dsDNA) DNA 1: TCGAGGTCGACGGTATCGCGTGGGCCCTCCACTAGTTCTAGAGCGGCCGCCAC DNA 2: GTGGCGGCCGCTCTAGAACTAGTGGAGGGCCCACGCGATACCGTCGACCTCGA
binding signal: 0.53 Ka relative to CG

Hello, the source for this data is paper PMC1184061, in case you need it.
